Tested on: Candida albicans UP10
Format: cell-based
CONDITION: UP10, 6 h
Where a SMILES comes first, the peptide text is derived from it.
READOUT: pEC50
Please treat pEC50 as minus the base-10 logarithm of the molar concentration.

Problem: Which measured pEC50 belongs to CC(C)C[C@H](NC(=O)[C@H](CC(C)C)NC(=O)[C@H](CO)NC(=O)[C@H](CCC(N)=O)NC(=O)[C@H](CO)NC(=O)[C@H](CO)NC(=O)[C@@H](N)CCCCN)C(=O)N[C@@H](CC(N)=O)C(=O)N[C@@H](CO)C(=O)NCC(=O)N[C@@H](CC(N)=O)C(=O)N[C@@H](CCC(N)=O)C(=O)N[C@@H](CCCCN)C(=O)N[C@@H](CC(N)=O)C(=O)N[C@@H](Cc1ccc(O)cc1)C(=O)N[C@@H](CC(C)C)C(=O)N[C@H](C(=O)O)[C@@H](C)O [C7 L1] (H-KSSQSLLNSGNQKNYLT-OH) , tested on Candida albicans UP10?
Solution: 4.82

Problem: Which measured pEC50 belongs to CC[C@H](C)[C@H](NC(=O)[C@@H](N)Cc1ccc(O)cc1)C(=O)N[C@@H](CO)C(=O)N[C@@H](CS)C(=O)N[C@@H](Cc1ccc(O)cc1)C(=O)N[C@@H](CC(N)=O)C(=O)NCC(=O)N[C@@H](C)C(=O)N[C@H](C(=O)N[C@@H](CO)C(=O)N[C@@H](Cc1ccc(O)cc1)C(=O)N[C@@H](CC(N)=O)C(=O)N[C@@H](CCC(N)=O)C(=O)N[C@@H](CCCCN)C(=O)N[C@@H](Cc1ccccc1)C(=O)N[C@@H](CCCCN)C(=O)O)[C@@H](C)O [C7/pc42 H2] (H-YISCYNGATSYNQKFK-OH) , tested on Candida albicans UP10?
Solution: 5.38

Problem: Which measured pEC50 belongs to CC[C@H](C)[C@H](NC(=O)[C@@H](N)Cc1ccc(O)cc1)C(=O)N[C@@H](CO)C(=O)N[C@@H](CS)C(=O)N[C@@H](Cc1ccc(O)cc1)C(=O)N[C@@H](CC(N)=O)C(=O)NCC(=O)N[C@@H](C)C(=O)N[C@@H](C)C(=O)N[C@@H](CO)C(=O)N[C@@H](Cc1ccc(O)cc1)C(=O)N[C@@H](CC(N)=O)C(=O)N[C@@H](CCC(N)=O)C(=O)N[C@@H](CCCCN)C(=O)N[C@@H](Cc1ccccc1)C(=O)N[C@@H](CCCCN)C(=O)O [T9A] (H-YISCYNGAASYNQKFK-OH; N-terminus and C-terminus assumed) , tested on Candida albicans UP10?
Solution: 5.42

Problem: Which measured pEC50 belongs to N=C(N)NCCC[C@H](NC(=O)[C@H](CCC(N)=O)NC(=O)[C@@H](N)CCC(N)=O)C(=O)N[C@@H](CO)C(=O)N[C@@H](CC(N)=O)C(=O)N[C@@H](Cc1c[nH]c2ccccc12)C(=O)N1CCC[C@H]1C(=O)N[C@@H](CCCNC(=N)N)C(=O)N[C@@H](CO)C(=O)O [HuA L3] (H-QQRSNWPRS-OH) , tested on Candida albicans UP10?
Solution: 5.29

Problem: Which measured pEC50 belongs to CSCC[C@H](NC(=O)[C@H](Cc1ccc(O)cc1)NC(=O)[C@H](CO)NC(=O)[C@H](Cc1ccc(O)cc1)NC(=O)CNC(=O)[C@H](CO)NC(=O)[C@@H](NC(=O)[C@H](CO)NC(=O)[C@@H](NC(=O)[C@H](CO)NC(=O)[C@H](CCCCN)NC(=O)[C@H](CO)NC(=O)[C@H](C)NC(=O)[C@H](CCCNC(=N)N)NC(=O)[C@@H](N)Cc1ccc(O)cc1)C(C)C)[C@@H](C)O)C(=O)N[C@@H](Cc1c[nH]cn1)C(=O)O [pc42 L1] (H-YRASKSVSTSGYSYMH-OH) , tested on Candida albicans UP10?
Solution: 6.11

Problem: Which measured pEC50 belongs to CC[C@H](C)[C@H](NC(=O)[C@@H](N)Cc1ccc(O)cc1)C(=O)N[C@@H](CO)C(=O)N[C@@H](CS)C(=O)N[C@@H](Cc1ccc(O)cc1)C(=O)N[C@@H](CC(N)=O)C(=O)NCC(=O)N[C@@H](C)C(=O)N[C@H](C(=O)N[C@@H](CO)C(=O)N[C@@H](C)C(=O)N[C@@H](CC(N)=O)C(=O)N[C@@H](CCC(N)=O)C(=O)N[C@@H](CCCCN)C(=O)N[C@@H](Cc1ccccc1)C(=O)N[C@@H](CCCCN)C(=O)O)[C@@H](C)O [Y11A] (H-YISCYNGATSANQKFK-OH; N-terminus and C-terminus assumed) , tested on Candida albicans UP10?
Solution: 4.32

Problem: Which measured pEC50 belongs to CC[C@H](C)[C@H](NC(=O)[C@@H](N)Cc1ccc(O)cc1)C(=O)N[C@@H](CO)C(=O)N[C@@H](CS)C(=O)N[C@@H](C)C(=O)N[C@@H](CC(N)=O)C(=O)NCC(=O)N[C@@H](C)C(=O)N[C@H](C(=O)N[C@@H](CO)C(=O)N[C@@H](Cc1ccc(O)cc1)C(=O)N[C@@H](CC(N)=O)C(=O)N[C@@H](CCC(N)=O)C(=O)N[C@@H](CCCCN)C(=O)N[C@@H](Cc1ccccc1)C(=O)N[C@@H](CCCCN)C(=O)O)[C@@H](C)O [Y5A] (H-YISCANGATSYNQKFK-OH; N-terminus and C-terminus assumed) , tested on Candida albicans UP10?
Solution: 4.54

Problem: Which measured pEC50 belongs to CC[C@H](C)[C@H](NC(=O)[C@@H](N)Cc1ccc(O)cc1)C(=O)N[C@@H](CO)C(=O)N[C@@H](CS)C(=O)N[C@@H](Cc1ccc(O)cc1)C(=O)N[C@@H](CC(N)=O)C(=O)N[C@@H](C)C(=O)N[C@@H](C)C(=O)N[C@H](C(=O)N[C@@H](CO)C(=O)N[C@@H](Cc1ccc(O)cc1)C(=O)N[C@@H](CC(N)=O)C(=O)N[C@@H](CCC(N)=O)C(=O)N[C@@H](CCCCN)C(=O)N[C@@H](Cc1ccccc1)C(=O)N[C@@H](CCCCN)C(=O)O)[C@@H](C)O [G7A] (H-YISCYNAATSYNQKFK-OH; N-terminus and C-terminus assumed) , tested on Candida albicans UP10?
Solution: 5.14

Problem: Which measured pEC50 belongs to CC[C@H](C)[C@H](NC(=O)[C@@H](N)Cc1ccc(O)cc1)C(=O)N[C@@H](CO)C(=O)N[C@@H](CS)C(=O)N[C@@H](Cc1ccc(O)cc1)C(=O)N[C@@H](CC(N)=O)C(=O)NCC(=O)N[C@@H](C)C(=O)N[C@H](C(=O)N[C@@H](CO)C(=O)N[C@@H](Cc1ccc(O)cc1)C(=O)N[C@@H](CC(N)=O)C(=O)N[C@@H](CCC(N)=O)C(=O)N[C@@H](CCCCN)C(=O)N[C@@H](Cc1ccccc1)C(=O)N[C@@H](C)C(=O)O)[C@@H](C)O [K16A] (H-YISCYNGATSYNQKFA-OH; N-terminus and C-terminus assumed) , tested on Candida albicans UP10?
Solution: 3.79

Data provenance: paper PMC2396520
